- protocol.details: cells
- Assay type: functional, cell-based
The source made the active and inactive calls.
Form field: EC50 (one value per entry).

Solved entries (count: 3):
>  <compound.smiles>
CC(=O)Nc1nc(C)c(-c2csc(Nc3ccccn3)n2)s1

>  <EC50>
> 350 µM (not active)

$$$$
>  <compound.smiles>
COc1ccccc1N(CC(=O)N/N=C/c1c(O)ccc2ccccc12)S(C)(=O)=O

>  <EC50>
9.19 µM (active)

$$$$
>  <compound.smiles>
O=C(Nc1cccc(Cl)c1)Nc1cccc(C(=O)O)c1

>  <EC50>
> 350 µM (not active)

$$$$

Moving on to the next molecule.
[ask] Look up EC50 for this molecule: CCN(CC)CCNc1cc(C)nc2c1C(=O)C(=O)C=C2N1CCCCC1
[reply] > 350 µM (not active)

* * *

- Tested on: SN12K1
- protocol.details: cells
- Assay type: functional
- run.parameters: Homo sapiens
Counter-ions that a name gives are not always drawn. Activity calls are given as the source filed them.
The categories you may choose from are y for active, n for inactive

Would you please look over these solved cases?
>  <compound>
CSCSCC(CO)NC(=O)/C=C\c1c(C)[nH]c(=O)[nH]c1=O (centres undefined)

>  <tested.system>
SN12K1

>  <label>
n

$$$$
>  <compound>
COC(=O)C[C@](O)(CCCC(C)(C)O)C(=O)O[C@@H]1C(OC)=C[C@]23CCCN2CCc2cc4c(cc2[C@H]13)OCO4 [OMACETAXINE MEPESUCCINATE]

>  <tested.system>
SN12K1

>  <label>
y

$$$$
>  <compound>
CC(=O)OC1C=C(C=O)C(O)(C=O)C2(C)CCCC(C)(C)C12 (centres undefined)

>  <tested.system>
SN12K1

>  <label>
n

$$$$

[ask] Recorded call for CC(=O)N(C)c1ccc(Nc2cc(C)nc3ccc4nc[nH]c4c23)cc1 [ACODAZOLE HYDROCHLORIDE] ?
[reply] n

* * *

- tested.system: Type-1 angiotensin II receptor (Homo sapiens, UniProt P30556)
- Sequence (P30556 whole entry): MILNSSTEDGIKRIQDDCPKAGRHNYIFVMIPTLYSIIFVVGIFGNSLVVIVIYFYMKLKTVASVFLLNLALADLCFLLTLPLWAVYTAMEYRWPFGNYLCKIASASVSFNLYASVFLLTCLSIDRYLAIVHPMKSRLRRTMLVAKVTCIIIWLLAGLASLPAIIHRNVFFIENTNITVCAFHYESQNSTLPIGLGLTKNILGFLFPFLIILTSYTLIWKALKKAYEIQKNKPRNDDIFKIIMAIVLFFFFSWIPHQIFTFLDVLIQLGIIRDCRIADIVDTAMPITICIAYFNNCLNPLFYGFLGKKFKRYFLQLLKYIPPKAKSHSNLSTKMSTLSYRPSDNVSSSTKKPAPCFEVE
- protocol.details: antagonism of angiotensin II type 1 receptor – cell-based, uHTS hits, selectivity assay for APJ receptor antagonist project, dose response (AID 463214);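 note: antagonist potency against angiotensin II stimulated AT1 response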
- Type: functional
Calls of active or inactive are those of the source.
assay.metric: IC50

[ask] What value of IC50 on Type-1 angiotensin II receptor (Homo sapiens, UniProt P30556) does Cn1c(=O)c(C(=S)NC(=O)C2CC2)c(N)n(Cc2ccccc2)c1=O have?
[reply] > 40 µM (not active)

[ask] # repeat for COc1cccc2sc(Nc3nc(C)c(C(C)=O)s3)nc12
[reply] 23.3 µM (not active)

[ask] Queued: Cc1cccnc1Nc1nc(-c2ccccn2)cs1
[reply] 2.24 µM (active)

[ask] Also need O=C(COC(=O)c1cnccn1)c1cccc([N+](=O)[O-])c1 , thanks.
[reply] 13.6 µM (active)

* * *

- tested.system: Polyadenylate-binding protein 1 (Homo sapiens)
- Sequence (P11940 whole entry): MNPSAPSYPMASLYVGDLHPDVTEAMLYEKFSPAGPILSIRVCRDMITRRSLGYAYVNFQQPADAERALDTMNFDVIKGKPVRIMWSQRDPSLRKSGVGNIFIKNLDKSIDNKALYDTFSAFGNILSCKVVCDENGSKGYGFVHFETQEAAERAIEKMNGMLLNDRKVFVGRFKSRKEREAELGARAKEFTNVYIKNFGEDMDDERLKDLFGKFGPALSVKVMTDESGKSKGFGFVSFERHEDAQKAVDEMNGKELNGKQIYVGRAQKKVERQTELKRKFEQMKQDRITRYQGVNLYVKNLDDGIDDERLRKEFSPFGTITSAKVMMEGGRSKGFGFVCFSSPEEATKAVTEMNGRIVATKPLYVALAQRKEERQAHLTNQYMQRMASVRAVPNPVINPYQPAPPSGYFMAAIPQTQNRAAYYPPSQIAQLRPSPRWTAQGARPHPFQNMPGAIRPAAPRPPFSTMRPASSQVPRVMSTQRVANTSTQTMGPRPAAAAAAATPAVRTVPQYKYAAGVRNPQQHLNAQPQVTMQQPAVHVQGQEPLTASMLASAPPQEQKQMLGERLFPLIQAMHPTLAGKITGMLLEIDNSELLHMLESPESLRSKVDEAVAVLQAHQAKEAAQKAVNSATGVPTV
- protocol.details: MLLE binding blockers, Cy5 peptide tracer – biochemical, fluorescence polarization, Cy5-PAM2 peptide, secondary, miRNA deadenylation inhibitor project, dose response (AID 602260)
- Format: functional
- run.parameters: read-out: IC50_Mean
The source made the active and inactive calls.
assay.metric: IC50

Consider the worked cases shown below.
>  <compound>
O=C(NC(=S)N1C[C@H]2C[C@H](C1)c1cccc(=O)n1C2)c1ccc(Cl)cc1

>  <reported.measurement>
> 66 µM (inactive)

$$$$
>  <compound>
NC(=S)Nc1ccc(S(=O)(=O)c2ccc(NC(N)=S)cc2)cc1

>  <reported.measurement>
> 66 µM (inactive)

$$$$
>  <compound>
CNC(=O)CSP(=S)(OC)OC [DIMETHOATE]

>  <reported.measurement>
> 66 µM (inactive)

$$$$
>  <compound>
CN(Cc1ccc(Cl)cc1)C(=O)COC(=O)CSc1ccc([N+](=O)[O-])cc1

>  <reported.measurement>
> 66 µM (inactive)

$$$$
>  <compound>
NC(=O)N1c2ccccc2CC(=O)c2ccccc21 [OXCARBAZEPINE]

>  <reported.measurement>
> 66 µM (inactive)

$$$$

# evaluate next
[ask] Request the reported IC50 associated with Cc1cnc(C=NNC(N)=S)c2cccc(N)c12
[reply] > 66 µM (inactive)
